- Substrate: O=C(O)c1cc(C(=O)O)oc(=O)c1
- EXPERIMENT SUMMARY: purified protein
- Type: biochemical, Sphingobium sp. SYK-6
- MEASUREMENT CONDITIONS: 50 mM BICINE pH 8.25, 30 °C
Provide the recorded Km for the entries that follow.
// units = µM; emit number, no label

Memo: LigI (Sphingobium sp. SYK-6; H178A) (protein) TNDERILSWNETPSKPRYTPPPGAIDAHCHVFGPMAQFPFSPKAKYLPRDAGPDMLFALRDHLGFARNVIVQASCHGTDNAATLDAIARAQGKARGIAVVDPAIDEAELAALHEGGMRGIRFNFLKRLVDDAPKDKFLEVAGRLPAGWHVVIYFEADILEELRPFMDAIPVPIVIDAMGRPDVRQGPDGADMKAFRRLLDSREDIWFKATCPDRLDPAGPPWDDFARSVAPLVADYADRVIWGTDWPHPNMQDAIPDDGLVVDMIPRIAPTPELQHKMLVTNPMRLYWSEEM , reported Km: 214

Memo: LigI (Sphingobium sp. SYK-6; Y47F) (protein) TNDERILSWNETPSKPRYTPPPGAIDAHCHVFGPMAQFPFSPKAKFLPRDAGPDMLFALRDHLGFARNVIVQASCHGTDNAATLDAIARAQGKARGIAVVDPAIDEAELAALHEGGMRGIRFNFLKRLVDDAPKDKFLEVAGRLPAGWHVVIYFEADILEELRPFMDAIPVPIVIDHMGRPDVRQGPDGADMKAFRRLLDSREDIWFKATCPDRLDPAGPPWDDFARSVAPLVADYADRVIWGTDWPHPNMQDAIPDDGLVVDMIPRIAPTPELQHKMLVTNPMRLYWSEEM , reported Km: 217

From: paper PMC3416963
